Each entry below lists one item and its recorded EC50 value.
# Test system: Human Pan T Cell (IL-2 release)
# assay comment: IL2 released by human pan T cell upon anti-CD3/anti-CD28 stimulation (ELISA)
# Assay type: cell-based
# experimental conditions: Homo sapiens, T-cell, IL-2 response, human pan T cells, calculated with GraphPad Prism

Solved cases (2 shown):
compound	EC50
COC(=O)C1CN(c2nc(Nc3cc4c(cc3OC)CCN(C)C4)ncc2Cl)c2ccccc21 (stereo not shown) [Example 115]	100 to 500 nM
COc1cc2c(cc1Nc1ncc(Cl)c(N3CC(C(=O)O)C4(CCCCC4)C3)n1)CN(C)CC2 (stereo not shown) [Example 167]	500 to 1000 nM

Quick check: EC50 on Human Pan T Cell (IL-2 release), item COc1cc2c(cc1Nc1ncc(Cl)c(N3C[C@@](C)(C(=O)O)c4ccccc43)n1)CN(C)CC2 (single isomer, unassigned) [Example 119] ? ≤ 100 nM

Now consider COc1cc2c(cc1Nc1ncc(Cl)c(N3CC(C)(CO)c4ccccc43)n1)CN(C)CC2 (stereo not shown) [Example 123] . 100 to 500 nM
